For each entry below, report its cell viability value.
- System: NOMO1
- test: cell viability relative to DMSO control; higher = less cytotoxic
- reported_conditions: HPLM + 10% dialyzed FBS; 48 h; 15.4 µM
Report only the number, with the unit % understood.

Look up cell viability with NOMO1 for this compound: COc1ccc2[nH]c([S+]([O-])Cc3ncc(C)c(OC)c3C)nc2c1 (stereo not given)
86.6

Look up cell viability with NOMO1 for this compound: O=C1Nc2ccc(I)cc2/C1=C/c1cc(Br)c(O)c(Br)c1
101

Look up cell viability with NOMO1 for this compound: CNC[C@H](O)c1cccc(O)c1
113

Look up cell viability with NOMO1 for this compound: CC1(N2CCC(n3c([C@@H]4CCCNC4)nc4ccccc43)CC2)CCCCCCC1
45.4

Look up cell viability with NOMO1 for this compound: NCCCCNCCCN
67.1

Look up cell viability with NOMO1 for this compound: Cn1c(=O)n(-c2ccc(C(C)(C)C#N)cc2)c2c3cc(-c4cnc5ccccc5c4)ccc3ncc21
33.9

Look up cell viability with NOMO1 for this compound: Nc1nc(N)c2nc(-c3cccc(O)c3)c(-c3cccc(O)c3)nc2n1
47.8

Look up cell viability with NOMO1 for this compound: COc1cccc([C@@H](C)NCCCc2ccccc2Cl)c1
95.9

Look up cell viability with NOMO1 for this compound: CC1=C(CC(=O)O)c2cc(F)ccc2/C1=C\c1ccc([S+](C)[O-])cc1 (stereo not given)
101

Look up cell viability with NOMO1 for this compound: CC(O)(C#Cc1ccc2c(c1)N(c1nc(N)ncc1Cl)CC2)c1nccs1 (stereo not given)
136
